test system: Mes-Sa/B1 mOrange; experiment: Triple coculture fluorescence cytotoxicity test, ABCB1-transfected MDR line; assay type: cell-based, human; conditions: Homo sapiens, MES-SA; triple coculture, 144 h incubation, fluorescence readout
// returns false unless IC50 is strictly below 40 µM, in which case true

Sample answers from the record:
[[record]]
compound = "COc1cc([C@@H]2c3cc4c(cc3[C@@H](O[C@@H]3O[C@@H]5CO[C@@H](C)O[C@H]5[C@H](O)[C@H]3O)[C@H]3COC(=O)[C@H]23)OCO4)cc(OC)c1O [Etoposide, reference compound]"
system_tested = "Mes-Sa/B1 mOrange"
answer_label = "true"

[[record]]
compound = "CC(C)c1cccc(C(C)C)c1-n1cc[n+](-c2c(C(C)C)cccc2C(C)C)c1 [IPr, reference compound]"
system_tested = "Mes-Sa/B1 mOrange"
answer_label = "true"

[[record]]
compound = "CC(C)c1cccc(C(C)C)c1N1C=[N+]([C@@H](C)c2ccccc2)C[C@@H]1C(C)(C)C"
system_tested = "Mes-Sa/B1 mOrange"
answer_label = "false"

[[record]]
compound = "CC(C)c1cccc(C(C)C)c1N1C=[N+](c2c(C(C)C)cccc2C(C)C)CC1 [SIPr, reference compound]"
system_tested = "Mes-Sa/B1 mOrange"
answer_label = "false"


With those in mind, consider the next compound.
Asked: Determine whether this compound shows IC50 lower than 40 µM (ties excluded): CC(C)c1cccc(C(C)C)c1N1C=[N+]([C@H](C)c2ccccc2)C[C@@H]1C(C)(C)C
Given back: false
